- target_system: UniProt:P10635
- Sequence (P10635 whole entry): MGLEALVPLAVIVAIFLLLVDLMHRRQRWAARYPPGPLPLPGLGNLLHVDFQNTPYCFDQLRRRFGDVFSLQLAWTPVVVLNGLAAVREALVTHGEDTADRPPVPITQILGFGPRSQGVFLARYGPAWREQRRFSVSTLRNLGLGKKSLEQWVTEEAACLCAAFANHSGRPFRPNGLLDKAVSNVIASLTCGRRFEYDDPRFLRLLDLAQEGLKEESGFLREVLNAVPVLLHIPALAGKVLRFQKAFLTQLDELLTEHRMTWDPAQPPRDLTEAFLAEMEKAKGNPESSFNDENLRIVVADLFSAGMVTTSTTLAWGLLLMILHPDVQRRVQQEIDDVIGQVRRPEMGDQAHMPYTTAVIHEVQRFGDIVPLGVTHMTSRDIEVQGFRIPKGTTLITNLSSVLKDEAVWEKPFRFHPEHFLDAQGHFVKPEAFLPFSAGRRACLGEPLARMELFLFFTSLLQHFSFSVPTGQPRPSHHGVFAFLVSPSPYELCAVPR
measurement_kind: IC50 (nM)
Response body: numeric value in nM, unit text excluded.

## Input Provide one value: measured IC50 of COc1ccc2c(c1)[C@]13CCCC[C@@H]1[C@H](C2)N(C)CC3
## Output 52

====

- test_summary: Selectivity index, ratio of CC50 for cytotoxicity against human MT4 cells to EC50 for antiviral activity against wild type HIV1 IIIB infected in human MT4 cells
- Format: toxicity, cell-based
- measurement_setup: read-out: Ratio CC50/EC50
Please note: Y applies when selectivity ratio is 40 or greater, and N applies otherwise.

Worked examples, 4 compounds total:
[
  {
    "substance_smiles": "O=c1[nH]c(=O)n(COCc2ccccc2)c(Sc2ccccc2Br)c1C1CC1",
    "group": "Y"
  },
  {
    "substance_smiles": "Cc1c(Sc2ccccc2)n(COCCO)c(=O)[nH]c1=O",
    "group": "Y"
  },
  {
    "substance_smiles": "O=c1[nH]c(=O)n(COCc2ccccc2)c(Sc2cccc(F)c2)c1C1CC1",
    "group": "Y"
  },
  {
    "substance_smiles": "O=c1[nH]c(=O)n(COCc2ccccc2)c(Sc2cc(Cl)cc(Cl)c2)c1C1CC1",
    "group": "Y"
  }
]

Next, consider the following compound.
## Input Could you please find out whether O=c1[nH]c(=O)n(COCc2ccccc2)c(Sc2cc(F)ccc2F)c1C1CC1 has selectivity ratio that meets 40 or exceeds it?
## Output Y

====

- test_summary: Selectivity index, ratio of CC50 for cytotoxicity against human MT4 cells to EC50 for antiviral activity against wild type HIV1 IIIB infected in human MT4 cells
- Format: toxicity, cell-based
- measurement_setup: read-out: Ratio CC50/EC50
Reported values of selectivity ratio for individual entries
// keep it numeric: no unit symbol after the value

Examples with answers:
[
  {
    "substance_smiles": "O=c1[nH]c(=O)n(COCc2ccccc2)c(Sc2ccccn2)c1C1CC1",
    "selectivity ratio": 1000
  },
  {
    "substance_smiles": "COc1cccc(Sc2c(C3CC3)c(=O)[nH]c(=O)n2COCc2ccccc2)c1",
    "selectivity ratio": 383
  },
  {
    "substance_smiles": "O=c1[nH]c(=O)n(COCc2ccccc2)c(Sc2ccccc2)c1C1CC1",
    "selectivity ratio": 1250
  },
  {
    "substance_smiles": "O=c1[nH]c(=O)n(COCc2ccccc2)c(Sc2cc(F)cc(F)c2)c1C1CC1",
    "selectivity ratio": 842
  },
  {
    "substance_smiles": "Cc1cccc(Sc2c(C3CC3)c(=O)[nH]c(=O)n2COCc2ccccc2)c1",
    "selectivity ratio": 1160
  },
  {
    "substance_smiles": "O=c1[nH]c(=O)n(COCc2ccccc2)c(Sc2ccc(F)cc2)c1C1CC1",
    "selectivity ratio": 53
  },
  {
    "substance_smiles": "O=c1[nH]c(=O)n(COCc2ccccc2)c(Sc2c(F)cccc2F)c1C1CC1",
    "selectivity ratio": 89
  },
  {
    "substance_smiles": "O=c1[nH]c(=O)n(COCc2ccccc2)c(Sc2cccc(Cl)c2)c1C1CC1",
    "selectivity ratio": 613
  }
]

## Input Indicate the recorded selectivity ratio value for this compound: Cc1cc(C)cc(Sc2c(C3CC3)c(=O)[nH]c(=O)n2COCc2ccccc2)c1
## Output 1480

## Input Write down selectivity ratio measured for item O=c1[nH]c(=O)n(COCc2ccccc2)c(Sc2cccc(F)c2F)c1C1CC1
## Output 224

## Input Provide measured selectivity ratio value, entry: O=c1[nH]c(=O)n(COCc2ccccc2)c(Sc2ccc(F)cc2F)c1C1CC1
## Output 28

## Input Output measured selectivity ratio for this item: Cc1cccc(C)c1Sc1c(C2CC2)c(=O)[nH]c(=O)n1COCc1ccccc1
## Output 7

## Input Specify selectivity ratio for CC(C)c1c(Sc2cccc3ccccc23)n(COCc2ccccc2)c(=O)[nH]c1=O and stop.
## Output 565
